# EXPERIMENT: Lymphocyte Viability / Cytotoxicity Assay (LcV), MTT
# Format: cell-based, murine
# SETTINGS: Balb/c, mouse, murine lymphocytes (Balb/c); text summary of Table 4
OBSERVABLE: IC50 at 4 h

MOLECULE: C=C1COC(O)(C2OCOC(C3CC(=O)NC(=O)C3)C2O)C1C (stereo not shown) [Sesbanimide, sesbanimide]
TEST_RESULT: 0.417 to 3.6 µg/mL
